assay: cytosolic pH regulators acting via V-ATPase – S. cerevisiae, pHLuorin, HTS validation (AID 504600); settings: V-ATPase proton transport, at 10 µM, hits give high values;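 also: plate controls were DMSO for no effect and reference compound for full effect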
Listed here are compounds together with their documented response.
API: value field is a number in %; no unit string.

Answered cases to consult:
[[record]]
compound = "CC(=O)Oc1cc2oc(=O)cc(C)c2cc1OC(C)=O"
measured = 1.09

[[record]]
compound = "CCCC(=O)Nc1ccccc1NC(C)=O"
measured = 0.04

[[record]]
compound = "O=C(Nc1ccc(N2CCOCC2)cc1)c1ccc(-c2ccccc2[N+](=O)[O-])o1"
measured = 1.65

[[record]]
compound = "CCOC(=O)N1CCN(Cc2nc(Cc3cccc(F)c3)no2)CC1"
measured = 2.06

[[record]]
compound = "O=C(c1ccco1)N(CCC(c1ccccc1)c1ccco1)Cc1ccco1 (stereo not drawn)"
measured = -0.61


[Q] Tell me the measured response of `Cn1nc(-c2ccc(Cl)cc2)nc2c(=O)n(C)c(=O)nc1-2` , please.
[A] 59.4

[Q] Then this compound: `CNC(=O)Oc1ccc2c(c1)[C@]1(C)CCN(C)[C@@H]1N2C`
[A] -0.59

[Q] Ok, now `O=C(Cc1cccc2ccccc12)N1CC[C@@]2(O)CCCC[C@H]2C1`
[A] 2.02

[Q] Now give it for CCC1CCc2c(sc(NC(=O)c3cccnc3)c2C(N)=O)C1 (stereo not drawn) too.
[A] -30.9

[Q] Field entry: CCOC(=O)C1=C(C)NC(C)=C(C(=O)OC)C1c1cccc([N+](=O)[O-])c1 (stereo not drawn)
[A] -3.09

[Q] What do you get for `Nc1ccc(-c2nc3ncccc3o2)c(Cl)c1` ?
[A] 61.4

[Q] Would you mind doing `COc1cc(NC(=O)COc2ccccc2)c(OC)cc1NC(C)=O` as well?
[A] -0.91

[Q] Also, O=C(Nc1ncc2c(n1)CC(c1ccco1)CC2=O)c1ccco1 (stereo not drawn) please.
[A] -0.72

Hello, the source for this data is PubChem BioAssay, in case you need it.
